Reference for the values: patent US20250101098A1

measurementTarget: T1, cynomolgus Nectin-4 His tagged (cynomolgus, UniProt A0A2K5WES1 32-349)
T1 construct: also called Ag2
T1 sequence: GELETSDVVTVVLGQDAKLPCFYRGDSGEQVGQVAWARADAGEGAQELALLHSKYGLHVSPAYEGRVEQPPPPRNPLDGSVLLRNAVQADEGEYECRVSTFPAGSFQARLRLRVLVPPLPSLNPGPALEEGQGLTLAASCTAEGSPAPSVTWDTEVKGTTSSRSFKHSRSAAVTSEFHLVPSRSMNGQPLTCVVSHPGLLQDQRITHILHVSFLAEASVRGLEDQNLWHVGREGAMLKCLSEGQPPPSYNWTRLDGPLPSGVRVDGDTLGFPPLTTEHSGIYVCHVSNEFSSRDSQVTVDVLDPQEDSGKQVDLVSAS
procedureSummary: ELISA, hybridoma supernatant
readoutType: ELISA signal
One number for each entry.

Report ELISA signal for every entry below.
1. Nectin-4 12E11H/12E11L (hybridoma supernatant) (antibody, V domains shown, Mouse antibody in hybridoma supernatant) VH: QVQLKQSGPGLVQPSQSLSITCTVSGFSLTTYGVHWVRQSPGKGLEWLGVIWSGGSTDCNGAFISRLSIIKDNSKSQVFFKMNSLQADDTAIYYCARMTHWYFDVWGTGTTVTVSS VL: DIVMTQSQKFMSTTVGDRVSITCKASQNVNTAVAWYQQKPGQSPKLLIYSASYRYTGVPDRFTGSGSGTDFTLTISNMQSEDLADYFCQQYSNYPLTFGAGTKLELK
2. Nectin-4 Hybridoma 6C8H/6C8L (hybridoma supernatant) (antibody, V domains shown, Mouse antibody in hybridoma supernatant) VH: QVQLKQSGPGLVQPSQSLSITCTVSGFSLSTYGVHWVRQSPGKGLEWLGVIWSGGSTDYNAAFISRLTISKDNSKSQIFFKMNSLQADDTAIYYCARMMSWYFDVWGTGTTVTVSS VL: DIVMTQSQKFMSTSVGDRVSVTCKASQNVVTNVAWYQQKPGQSPKALIYSASYRYSGVPDRFTGSGSGTDFTLTISNVQSEDLAEYFCQQYNSYPLTFGAGTKLELK
3. Nectin-4 7H10H/7H10L (hybridoma supernatant) (antibody, V domains shown, Mouse antibody in hybridoma supernatant) VH: QVQLQQPGAELVKPGASVKLSCKASGYTFTTYWMHWVKQRPGRGLEWIGGIDPYGAHIKYNEMFKTKATLTVDKPSSTAYMQLSSLTSEDSAVYYCARGDYSNWWWTYWGQGTLVTVSA VL: DIVMTQSQKFMSTTVGDRVSITCKASQNVGTAVAWYQQIPGQSPKLLIYSASNRYTGVPDRFTGSGSGTDFTLTITNMQSEDLADYFCQHYSSYPWTFGGGTKLEIK
4. Nectin-4 5D9H/5D9L (hybridoma supernatant) (antibody, V domains shown, Mouse antibody in hybridoma supernatant) VH: QVQLKQSGPGLVQPSQSLSITCTVSGFSLTNYGVHWVRQSPGKGLEWLGVIWSGGSTDYNAAFVSRLSISRDNSKSQVFFKMNSLQADDTAIYYCARSGKWYYFDYWGQGTTLTVSS VL: DIQMTQSPASLSVSVGETVTITCRASENIYSNLAWYQQKQGKSPQLLVYAATNLADGVPSRFSGSGSGTQYSLKINSLQSEDFGSYYCQHFWGTPTFGGGTKLEIK
5. Nectin-4 3C12H/3C12L (hybridoma supernatant) (antibody, V domains shown, Mouse antibody in hybridoma supernatant) VH: QVQLKQSGPGLVQPSQSLSITCTVSGFSLTTYGVHWVRQSPGKGLEWLGVIWSGGNTDYNAAFISRLSISKDNSKSQVFFKMNSLQADDTAIYYCARMTHWYFDVWGTGTTVTVSS VL: DIVMTQSQKFMSTTVGDRVSITCKASQNVVTAVAWYQQKPGQSPKLLIYSASNRYTGVPDRFTGSGSGTDFTLTISYMQSEDLADYFCQQYSSYPLTFGAGTKLELK

Result string:
[3.44, 3.4, 3.49, 3.32, 3.45]

Query string: Which ELISA signal value belongs to Nectin-4 7 E8H/7 E8L (hybridoma supernatant) (antibody, V domains shown, Mouse antibody in hybridoma supernatant) VH: QVQLKQSGPGLVQPSQSLSITCTVSGFSLATYGVHWVRQSPGKGLEWLGVIWSGGSTDYNAAFISRLSISKDNSKSQVFFKMNSLQADDTAIYYCARNSHWYFDVWGTGTTVTVSS VL: DIVMTQSQKFMSTSVGDRVSVTCKASQNVVTNVAWYQQKPGQSPKALIYSASYRYSGVPDRFTGSGSGTDFTLTISHVQSEDLAEYFCHQYNNYPYTFGGGTKLEIK ?
Result string: 3.44
